Assay: MRC-5 cytotoxicity
Type: cell-based
Settings: human, MRC-5 cells; S1 Data
MEASURED QUANTITY: CC50 (µM)
Quick reminder: number only, in µM, skip the unit.

Answered examples (3):
STRUCTURE: Cn1ccc(C(=O)Nc2nc3ccc(C#N)cc3n2CC(F)(F)F)n1
CC50 / µM: 58.2

STRUCTURE: Cn1nccc1C(=O)Nc1nc2ccc(C#N)cc2n1CC(C)(C)C
CC50 / µM: 14.9

STRUCTURE: N#Cc1ccc2nc(NC(=O)c3ccnn3C3CC3)n(CC(F)(F)F)c2c1
CC50 / µM: 3

Data request: Consider the compound CC(C)(C)Cn1c(NC(=O)c2ccccn2)nc2ccc(C#N)cc21 and give its measured CC50.
Data returned: 60.9
